# Test system: 996289-038-R-J1-PDC spheroid viability
# protocol.text: Anticancer human tumor 996289-038-R-J1-PDC patient-derived colon adenocarcinoma cell line growth inhibition [PI3K]
# study.conditions: curve of first compound; second compound 0.00316 µM; spheroids with HUVEC and MSC
# Text: Combinatorial screen of targeted agents with the PI3K inhibitors inavolisib, alpelisib, duvelisib, and copanlisib in multi-cell type tumor spheroids A high-throughput screen of multi-cell type tumor spheroids was designed to identify active combinations of targeted small molecules and PI3K pathway inhibitors. […] Compounds. […] If the clinical Cmax for an agent had not been determined, the highest concentration tested was 10 microM. […]
measurement.label: IC50 (µM)

CC1(C)CCC(CN2CCN(c3ccc(C(=O)NS(=O)(=O)c4ccc(NCC5CCOCC5)c([N+](=O)[O-])c4)c(Oc4cnc5[nH]ccc5c4)c3)CC2)=C(c2ccc(Cl)cc2)C1 + COc1c(OCCCN2CCOCC2)ccc2c3n(c(=NC(=O)c4cnc(N)nc4)nc12)CCN3 = 7.54

[A] CCCS(=O)(=O)Nc1ccc(F)c(C(=O)c2c[nH]c3ncc(-c4ccc(Cl)cc4)cc23)c1F + CC(Nc1ccc2c(c1)OCCn1cc(N3C(=O)OCC3C(F)F)nc1-2)C(N)=O
[B] C#Cc1c(F)ccc2cc(O)cc(-c3ncc4c(N5CC6CCC(C5)N6)nc(OCC56CCCN5CC(F)C6)nc4c3F)c12 (stereo not given) + COc1c(OCCCN2CCOCC2)ccc2c3n(c(=NC(=O)c4cnc(N)nc4)nc12)CCN3
Task: Field: lower recorded IC50 (choose A or B ) Bench note: the answer is the label of the chosen record.
Result: B

----------
# System: 996289-038-R-J1-PDC spheroid viability
# protocol.text: Anticancer human tumor 996289-038-R-J1-PDC cell line growth inhibition [PI3K];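 note: spheroids exposed to compounds for seven days before viability read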;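 for viability, T/C: luminescence used as a proxy for viable cell amount; percent viability relative to DMSO vehicle control as 100%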
# study.conditions: second compound 0.0316 µM; first compound 0.000316 µM; stronger effect = lower value; spheroids with HUVEC and MSC
measurement.label: viability, T/C (%)
Write down the numeric answer in % and omit the unit.

CC(=O)c1c(C)c2cnc(Nc3ccc(N4CCNCC4)cn3)nc2n(C2CCCC2)c1=O + CC(Nc1ccc2c(c1)OCCn1cc(N3C(=O)OCC3C(F)F)nc1-2)C(N)=O = 101
CC(C)n1nc(-c2ccc3oc(N)nc3c2)c2c(N)ncnc21 + CC(Nc1ccc2c(c1)OCCn1cc(N3C(=O)OCC3C(F)F)nc1-2)C(N)=O = 100
CC(C)n1nc(-c2ccc3oc(N)nc3c2)c2c(N)ncnc21 + COc1c(OCCCN2CCOCC2)ccc2c3n(c(=NC(=O)c4cnc(N)nc4)nc12)CCN3 = 69
CC(C)n1nc(-c2ccc3oc(N)nc3c2)c2c(N)ncnc21 + Cc1nc(NC(=O)N2CCCC2C(N)=O)sc1-c1ccnc(C(C)(C)C(F)(F)F)c1 = 97.1

Task: Record request: viability, T/C value, item Cn1ncnc1[C@H]1c2n[nH]c(=O)c3cc(F)cc(c23)N[C@@H]1c1ccc(F)cc1 + CC(Nc1ncnc2nc[nH]c12)c1cc2cccc(Cl)c2c(=O)n1-c1ccccc1
Result: 97.1

Task: Record request: viability, T/C value, item CC(=O)c1c(C)c2cnc(Nc3ccc(N4CCNCC4)cn3)nc2n(C2CCCC2)c1=O + CC(Nc1ncnc2nc[nH]c12)c1cc2cccc(Cl)c2c(=O)n1-c1ccccc1
Result: 104

----------
Here the recorded viability, T/C is given for each entry.
# System: 996289-038-R-J1-PDC spheroid viability
# protocol.text: Anticancer human tumor 996289-038-R-J1-PDC cell line growth inhibition [PI3K];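 note: spheroids exposed to compounds for seven days before viability read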;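 for viability, T/C: luminescence used as a proxy for viable cell amount; percent viability relative to DMSO vehicle control as 100%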
# study.conditions: second compound 0.316 µM; first compound 0.949 µM; stronger effect = lower value; spheroids with HUVEC and MSC
Write down the numeric answer in % and omit the unit.

Recorded results for 3 molecules are shown here.
Cn1cnc2c(F)c(Nc3ccc(Br)cc3Cl)c(C(=O)NOCCO)cc21 + CC(Nc1ncnc2nc[nH]c12)c1cc2cccc(Cl)c2c(=O)n1-c1ccccc1 = 36.4
Cn1cnc2c(F)c(Nc3ccc(Br)cc3Cl)c(C(=O)NOCCO)cc21 + CC(Nc1ccc2c(c1)OCCn1cc(N3C(=O)OCC3C(F)F)nc1-2)C(N)=O = 24.9
Cn1cnc2c(F)c(Nc3ccc(Br)cc3Cl)c(C(=O)NOCCO)cc21 + COc1c(OCCCN2CCOCC2)ccc2c3n(c(=NC(=O)c4cnc(N)nc4)nc12)CCN3 = 6.3

Read the next record carefully.
Task: Record request: viability, T/C value, item Cn1cnc2c(F)c(Nc3ccc(Br)cc3Cl)c(C(=O)NOCCO)cc21 + Cc1nc(NC(=O)N2CCCC2C(N)=O)sc1-c1ccnc(C(C)(C)C(F)(F)F)c1
Result: 26.5

----------
# System: 996289-038-R-J1-PDC spheroid viability
# protocol.text: Anticancer human tumor 996289-038-R-J1-PDC cell line growth inhibition [PI3K];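 note: spheroids exposed to compounds for seven days before viability read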;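 for viability, T/C: luminescence used as a proxy for viable cell amount; percent viability relative to DMSO vehicle control as 100%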
# study.conditions: second compound 0.1 µM; first compound 10 µM; stronger effect = lower value; spheroids with HUVEC and MSC
measurement.label: viability, T/C (%)
Write down the numeric answer in % and omit the unit.

Recorded results for 2 compounds are shown here.
C#Cc1c(F)ccc2cc(O)cc(-c3ncc4c(N5CC6CCC(C5)N6)nc(OCC56CCCN5CC(F)C6)nc4c3F)c12 (stereo not drawn) + CC(Nc1ncnc2nc[nH]c12)c1cc2cccc(Cl)c2c(=O)n1-c1ccccc1 = 33
Cn1ncc(Cl)c1-c1cc(C(=O)NC(CN)Cc2cccc(F)c2)sc1Cl (stereo not drawn) + Cc1nc(NC(=O)N2CCCC2C(N)=O)sc1-c1ccnc(C(C)(C)C(F)(F)F)c1 = 45.1

Task: Record request: viability, T/C value, item CCCS(=O)(=O)Nc1ccc(F)c(C(=O)c2c[nH]c3ncc(-c4ccc(Cl)cc4)cc23)c1F + Cc1nc(NC(=O)N2CCCC2C(N)=O)sc1-c1ccnc(C(C)(C)C(F)(F)F)c1
Result: 18.5

----------
# Test system: 996289-038-R-J1-PDC spheroid viability
# protocol.text: Anticancer human tumor 996289-038-R-J1-PDC cell line growth inhibition [PI3K];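 note: spheroids exposed to compounds for seven days before viability read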;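 for viability, T/C: luminescence used as a proxy for viable cell amount; percent viability relative to DMSO vehicle control as 100%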
# study.conditions: second compound 0.316 µM; first compound 0.00316 µM; stronger effect = lower value; spheroids with HUVEC and MSC
measurement.label: viability, T/C (%)
Write down the numeric answer in % and omit the unit.

Recorded results for 5 compounds are shown here.
CCN1CCN(Cc2ccc(Nc3ncc(F)c(-c4cc(F)c5nc(C)n(C(C)C)c5c4)n3)nc2)CC1 + CC(Nc1ncnc2nc[nH]c12)c1cc2cccc(Cl)c2c(=O)n1-c1ccccc1 = 96.2
Cn1ncnc1[C@H]1c2n[nH]c(=O)c3cc(F)cc(c23)N[C@@H]1c1ccc(F)cc1 + COc1c(OCCCN2CCOCC2)ccc2c3n(c(=NC(=O)c4cnc(N)nc4)nc12)CCN3 = 46.8
CC(C)n1nc(-c2ccc3oc(N)nc3c2)c2c(N)ncnc21 + CC(Nc1ccc2c(c1)OCCn1cc(N3C(=O)OCC3C(F)F)nc1-2)C(N)=O = 57.2
Cn1ncnc1[C@H]1c2n[nH]c(=O)c3cc(F)cc(c23)N[C@@H]1c1ccc(F)cc1 + Cc1nc(NC(=O)N2CCCC2C(N)=O)sc1-c1ccnc(C(C)(C)C(F)(F)F)c1 = 84.1
CC(C)n1nc(-c2ccc3oc(N)nc3c2)c2c(N)ncnc21 + CC(Nc1ncnc2nc[nH]c12)c1cc2cccc(Cl)c2c(=O)n1-c1ccccc1 = 84.6

Task: Record lookup: for 996289-038-R-J1-PDC spheroid viability, what viability, T/C belongs to Cn1ncnc1[C@H]1c2n[nH]c(=O)c3cc(F)cc(c23)N[C@@H]1c1ccc(F)cc1 + CC(Nc1ncnc2nc[nH]c12)c1cc2cccc(Cl)c2c(=O)n1-c1ccccc1 ?
Result: 110

Task: Record lookup: for 996289-038-R-J1-PDC spheroid viability, what viability, T/C belongs to CC(=O)c1c(C)c2cnc(Nc3ccc(N4CCNCC4)cn3)nc2n(C2CCCC2)c1=O + CC(Nc1ccc2c(c1)OCCn1cc(N3C(=O)OCC3C(F)F)nc1-2)C(N)=O ?
Result: 63.4

Task: Record lookup: for 996289-038-R-J1-PDC spheroid viability, what viability, T/C belongs to CC(C)n1nc(-c2ccc3oc(N)nc3c2)c2c(N)ncnc21 + Cc1nc(NC(=O)N2CCCC2C(N)=O)sc1-c1ccnc(C(C)(C)C(F)(F)F)c1 ?
Result: 93

Task: Record lookup: for 996289-038-R-J1-PDC spheroid viability, what viability, T/C belongs to CCN1CCN(Cc2ccc(Nc3ncc(F)c(-c4cc(F)c5nc(C)n(C(C)C)c5c4)n3)nc2)CC1 + CC(Nc1ccc2c(c1)OCCn1cc(N3C(=O)OCC3C(F)F)nc1-2)C(N)=O ?
Result: 71.3

Task: Record lookup: for 996289-038-R-J1-PDC spheroid viability, what viability, T/C belongs to Cn1ncnc1[C@H]1c2n[nH]c(=O)c3cc(F)cc(c23)N[C@@H]1c1ccc(F)cc1 + CC(Nc1ccc2c(c1)OCCn1cc(N3C(=O)OCC3C(F)F)nc1-2)C(N)=O ?
Result: 81.2

Task: Record lookup: for 996289-038-R-J1-PDC spheroid viability, what viability, T/C belongs to CC(=O)c1c(C)c2cnc(Nc3ccc(N4CCNCC4)cn3)nc2n(C2CCCC2)c1=O + CC(Nc1ncnc2nc[nH]c12)c1cc2cccc(Cl)c2c(=O)n1-c1ccccc1 ?
Result: 102

Task: Record lookup: for 996289-038-R-J1-PDC spheroid viability, what viability, T/C belongs to CCN1CCN(Cc2ccc(Nc3ncc(F)c(-c4cc(F)c5nc(C)n(C(C)C)c5c4)n3)nc2)CC1 + COc1c(OCCCN2CCOCC2)ccc2c3n(c(=NC(=O)c4cnc(N)nc4)nc12)CCN3 ?
Result: 46.5
